MIC values, listed per item
test system: Escherichia coli; test: Antibacterial activity against Escherichia coli JM83 harboring empty pHF022 vector by broth microdilution method; type: functional
Return type: number; implicit unit µg/mL.

See these solved cases before continuing.
{"columns": ["Compound", "MIC (µg/mL)"],
 "data": [
  ["NC[C@@H]1O[C@@H](O[C@H]2[C@H](O)[C@@H](O[C@H]3O[C@H](CO)[C@@H](O)[C@H](N)[C@H]3O)[C@H](N)C[C@@H]2N)[C@@H](O)[C@H](O)[C@H]1O", 2],
  ["CN[C@@H]1[C@@H](O)[C@@H](O[C@@H]2[C@@H](O)[C@H](O[C@H]3O[C@H](C(C)O)[C@@H](O)[C@H](O)[C@H]3N)[C@@H](N)C[C@H]2N)OC[C@]1(C)O (single isomer, unassigned)", 2],
  ["NC[C@H]1O[C@H](O[C@H]2[C@H](O)[C@@H](O[C@H]3O[C@H](CO)[C@@H](O)[C@H](N)[C@H]3O)[C@H](N)C[C@@H]2N)[C@H](N)C[C@@H]1O", 1]
]}

For the next question, use this compound.
Tell me reported MIC for `NC[C@@H]1CC[C@@H](N)[C@@H](O[C@H]2[C@H](O)[C@@H](O[C@H]3O[C@H](CO)[C@@H](O)[C@H](N)[C@H]3O)[C@H](N)C[C@@H]2N)O1` , tested with Escherichia coli.
0.5

---

experiment: Ratio of Kcat to Km for Aminoglycoside […] 2a R92H/D268N mutant using ATP/GTP as second substrate by spectrophotometric assay
Readout label: kcat/Km

Illustrative cases are given below, each with its answer.
{"columns": ["Compound", "Experimental result"],
 "data": [
  ["NC[C@@H]1O[C@@H](O[C@H]2[C@H](O)[C@@H](O[C@H]3O[C@H](CO)[C@@H](O)[C@H](N)[C@H]3O)[C@H](N)C[C@@H]2N)[C@@H](O)[C@H](O)[C@H]1O", "> 2 ×10⁷ /M/s"],
  ["Nc1nc(=O)c2ncn([C@@H]3O[C@H](COP(=O)(O)OP(=O)(O)OP(=O)(O)O)[C@@H](O)C3O)c2[nH]1 (single isomer, unassigned)", "3.2 ×10⁵ /M/s"]
]}

Moving on to another compound below.
Give its kcat/Km value. Item: `NCC[C@H](O)C(=O)N[C@@H]1C[C@H](N)[C@@H](O[C@H]2O[C@H](CN)[C@@H](O)[C@H](O)[C@H]2O)[C@H](O)[C@H]1O[C@H]1O[C@H](CO)[C@@H](O)[C@H](N)[C@H]1O`
9.4 ×10⁵ /M/s

---

Quick reference: MIC of the listed items.
test system: Escherichia coli; test: Antibacterial activity against Escherichia coli JM83 harboring pHF022 containing aminoglycoside 2''-2a phosphotransferase R92H/D268N mutant by broth microdilution method; type: functional

Below: 3 compounds and their reported MIC.
{"columns": ["Compound", "MIC"],
 "data": [
  ["NC[C@@H]1O[C@@H](O[C@H]2[C@H](O)[C@@H](O[C@H]3O[C@H](CO)[C@@H](O)[C@H](N)[C@H]3O)[C@H](N)C[C@@H]2N)[C@@H](O)[C@H](O)[C@H]1O", "256 µg/mL"],
  ["CN[C@@H]1[C@@H](O)[C@@H](O[C@@H]2[C@@H](O)[C@H](O[C@H]3O[C@H](CN)[C@@H](O)[C@H](O)[C@H]3O)[C@@H](N)C[C@H]2NC(=O)[C@@H](O)CN)OC[C@]1(C)O", "16 µg/mL"],
  ["NCC[C@H](O)C(=O)N[C@@H]1C[C@H](N)[C@@H](O[C@H]2O[C@H](CN)[C@@H](O)[C@H](O)[C@H]2O)[C@H](O)[C@H]1O[C@H]1O[C@H](CO)[C@@H](O)[C@H](N)[C@H]1O", "16 µg/mL"]
]}

Note: attention shifts to another entry.
// query MIC value for entry CN[C@@H]1[C@@H](O)[C@@H](O[C@@H]2[C@@H](O)[C@H](O[C@H]3O[C@H](C(C)O)[C@@H](O)[C@H](O)[C@H]3N)[C@@H](N)C[C@H]2N)OC[C@]1(C)O (single isomer, unassigned)
512 µg/mL

---

Overview of recorded MIC for various molecules
tested on: Escherichia coli; assay: Antibacterial activity against Escherichia coli JM83 harboring empty pHF022 vector by broth microdilution method; format: functional
State the answer as a number, implicitly in µg/mL.

Field: example entries. Status: answers known.
{"columns": ["Smiles string", "Experimental result"],
 "data": [
  ["CN[C@@H]1[C@@H](O)[C@@H](O[C@@H]2[C@@H](O)[C@H](O[C@H]3O[C@H](CN)[C@@H](O)[C@H](O)[C@H]3O)[C@@H](N)C[C@H]2NC(=O)[C@@H](O)CN)OC[C@]1(C)O", 2],
  ["NCC[C@H](O)C(=O)N[C@@H]1C[C@H](N)[C@@H](O[C@H]2O[C@H](CN)[C@@H](O)[C@H](O)[C@H]2O)[C@H](O)[C@H]1O[C@H]1O[C@H](CO)[C@@H](O)[C@H](N)[C@H]1O", 2],
  ["NC[C@H]1O[C@H](O[C@H]2[C@H](O)[C@@H](O[C@H]3O[C@H](CO)[C@@H](O)[C@H](N)[C@H]3O)[C@H](N)C[C@@H]2N)[C@H](N)[C@@H](O)[C@@H]1O", 1],
  ["CCN[C@@H]1C[C@H](N)[C@@H](O[C@H]2OC(CN)=CC[C@H]2N)[C@H](O)[C@H]1O[C@H]1OC[C@](C)(O)[C@H](NC)[C@H]1O", 0.25]
]}

Could you now consider this next molecule?
State the recorded MIC for this entry: `CN[C@@H]1[C@@H](O)[C@@H](O[C@@H]2[C@@H](O)[C@H](O[C@H]3OC(CN)=CC[C@H]3N)[C@@H](N)C[C@H]2N)OC[C@]1(C)O`
0.25

---

assay: Ratio of Kcat to Km for Aminoglycoside […] 2a N196D/D268N mutant using ATP/GTP as second substrate by spectrophotometric assay
Readout label: kcat/Km

Some entries whose results are on file:
{"columns": ["Molecule", "kcat/Km"],
 "data": [
  ["NC[C@@H]1CC[C@@H](N)[C@@H](O[C@H]2[C@H](O)[C@@H](O[C@H]3O[C@H](CO)[C@@H](O)[C@H](N)[C@H]3O)[C@H](N)C[C@@H]2N)O1 [DIBEKACIN]", "> 1.7 ×10⁷ /M/s"],
  ["Nc1nc(=O)c2ncn([C@@H]3O[C@H](COP(=O)(O)OP(=O)(O)OP(=O)(O)O)[C@@H](O)C3O)c2[nH]1 (single isomer, unassigned)", "6.5 ×10⁵ /M/s"],
  ["NC[C@H]1O[C@H](O[C@H]2[C@H](O)[C@@H](O[C@H]3O[C@H](CO)[C@@H](O)[C@H](N)[C@H]3O)[C@H](N)C[C@@H]2N)[C@H](N)C[C@@H]1O [TOBRAMYCIN]", "> 1.7 ×10⁷ /M/s"]
]}

Value lookup for kcat/Km; key = CN[C@@H]1[C@@H](O)[C@@H](O[C@@H]2[C@@H](O)[C@H](O[C@H]3O[C@H](CN)[C@@H](O)[C@H](O)[C@H]3O)[C@@H](N)C[C@H]2NC(=O)[C@@H](O)CN)OC[C@]1(C)O [ISEPAMICIN]
2 ×10⁶ /M/s

Field request: kcat/Km | item: NCC[C@H](O)C(=O)N[C@@H]1C[C@H](N)[C@@H](O[C@H]2O[C@H](CN)[C@@H](O)[C@H](O)[C@H]2O)[C@H](O)[C@H]1O[C@H]1O[C@H](CO)[C@@H](O)[C@H](N)[C@H]1O [AMIKACIN]
1 ×10⁶ /M/s

Bench note: what kcat/Km did NC[C@@H]1O[C@@H](O[C@H]2[C@H](O)[C@@H](O[C@H]3O[C@H](CO)[C@@H](O)[C@H](N)[C@H]3O)[C@H](N)C[C@@H]2N)[C@@H](O)[C@H](O)[C@H]1O [KANAMYCIN A] show?
> 1.4 ×10⁷ /M/s

Consider the molecule shown here: `Nc1ncnc2c1ncn2[C@@H]1O[C@H](COP(=O)(O)OP(=O)(O)OP(=O)(O)O)[C@@H](O)[C@H]1O` What is its recorded kcat/Km?
2.2 ×10⁶ /M/s

---

assay: Activity of Aminoglycoside […] 2a N196D/D268N mutant using ATP/GTP as second substrate by spectrophotometric assay
A collection of molecules and their measured Km
All answers are understood in µM, so give the number only.

Would you please look over these solved cases?
{"columns": ["Molecule", "Experimental result"],
 "data": [
  ["CN[C@@H]1[C@@H](O)[C@@H](O[C@@H]2[C@@H](O)[C@H](O[C@H]3O[C@H](CN)[C@@H](O)[C@H](O)[C@H]3O)[C@@H](N)C[C@H]2NC(=O)[C@@H](O)CN)OC[C@]1(C)O [ISEPAMICIN]", 2],
  ["Nc1ncnc2c1ncn2[C@@H]1O[C@H](COP(=O)(O)OP(=O)(O)OP(=O)(O)O)[C@@H](O)[C@H]1O", 5.6],
  ["NCC[C@H](O)C(=O)N[C@@H]1C[C@H](N)[C@@H](O[C@H]2O[C@H](CN)[C@@H](O)[C@H](O)[C@H]2O)[C@H](O)[C@H]1O[C@H]1O[C@H](CO)[C@@H](O)[C@H](N)[C@H]1O [AMIKACIN]", 13.5]
]}

Let's switch to this molecule now.
# Km lookup, item Nc1nc(=O)c2ncn([C@@H]3O[C@H](COP(=O)(O)OP(=O)(O)OP(=O)(O)O)[C@@H](O)C3O)c2[nH]1 (single isomer, unassigned)
16.2
